Data provenance is ChEMBL document CHEMBL5728961.

- ASSAYED TARGET: Sodium/hydrogen exchanger 3 (Homo sapiens, UniProt P48764)
- Sequence (P48764 whole entry): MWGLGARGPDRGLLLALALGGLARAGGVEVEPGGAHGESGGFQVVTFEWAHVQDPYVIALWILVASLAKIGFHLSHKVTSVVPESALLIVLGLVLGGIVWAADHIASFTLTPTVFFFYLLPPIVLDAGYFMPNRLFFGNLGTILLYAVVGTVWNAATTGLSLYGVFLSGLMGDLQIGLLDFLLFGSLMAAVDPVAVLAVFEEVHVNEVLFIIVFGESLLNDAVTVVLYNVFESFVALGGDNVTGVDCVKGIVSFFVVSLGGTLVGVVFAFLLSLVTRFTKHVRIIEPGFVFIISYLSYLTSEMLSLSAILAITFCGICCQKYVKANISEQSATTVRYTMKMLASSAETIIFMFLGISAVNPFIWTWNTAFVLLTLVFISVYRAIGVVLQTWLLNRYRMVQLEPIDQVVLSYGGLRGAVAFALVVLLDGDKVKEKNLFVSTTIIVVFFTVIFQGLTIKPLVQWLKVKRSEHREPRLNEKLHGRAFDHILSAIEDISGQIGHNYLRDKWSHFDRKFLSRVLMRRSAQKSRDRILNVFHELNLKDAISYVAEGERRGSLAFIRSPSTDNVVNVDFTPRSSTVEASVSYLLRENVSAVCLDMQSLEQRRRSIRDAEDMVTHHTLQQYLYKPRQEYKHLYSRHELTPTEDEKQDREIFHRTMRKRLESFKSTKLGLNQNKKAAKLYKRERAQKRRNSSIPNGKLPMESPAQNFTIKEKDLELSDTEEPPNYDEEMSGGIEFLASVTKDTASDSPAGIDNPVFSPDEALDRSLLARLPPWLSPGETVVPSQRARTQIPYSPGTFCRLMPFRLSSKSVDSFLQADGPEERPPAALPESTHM
- TEST DETAILS: Cell-Based Assay of NHE-3 Activity (Pre-Incubation Inhibition): Rat and human NHE-3-mediated Na+-dependent H+ antiport was measured using a modification of the pH sensitive dye method originally reported by Paradiso (Proc. Natl. Acad. Sci. USA. (1984) 81(23): 7436-7440). PS120 fibroblasts stably expressing human NHE3 and NHERF2 were obtained from Mark Donowitz (Baltimore, Md.). Opossum kidney (OK) cells were obtained from the ATCC and propagated per their instructions. The rat NHE-3 gene (GenBank M85300) was introduced into OK cells via electroporation, and cells were seeded into 96 well plates and grown overnight. Medium was aspirated from the wells then incubated for 30 min at 37° C. with NH4Cl-HEPES buffer (20 mM NH4Cl, 80 mM NaCl, 50 mM HEPES, 5 mM KCl, 2 mM CaCl2, 1 mM MgCl2, pH 7.4) containing 5 μM BCECF-AM. Cells were washed once with Ammonium free, Na+-free HEPES (100 mM choline, 50 mM HEPES, 10 mM glucose, 5 mM KCl, 2 mM CaCl2, 1 mM MgCl2, pH 7.4) and incubated in the same buffer for 10 minutes at room temperature to lower intracellular pH with 0-30 μM test compound. […] Changes in intracellular pH were monitored using a FLIPR Tetra® (Molecular Devices, Sunnyvale, Calif.) by excitation at λex 439 to 505 nm, and measuring BCECF fluorescence at λem 538 nm. The initial rate of the fluorescence ratio change was used as a measure of NHE-mediated Na+/H+ activity, and reported as the change in fluorescence ratio per minute.
pIC50: −log10 of the molar value.
QUANTITY NAME: pIC50

Cc1cc(Cl)cc2c1C[C@H](N(C)C)[C@H]2Oc1ccc(S(=O)(=O)NCCOCCOCCNC(=O)NCCCCNC(=O)NCCOCCOCCNS(=O)(=O)c2ccc(O[C@H]3c4cc(Cl)cc(C)c4C[C@@H]3N(C)C)c(F)c2)cc1F; > 7.00

Which pIC50 reading was recorded for the compound `Cc1cc(S(=O)(=O)NCCOCCOCCNC(=O)NCCCCNC(=O)NCCOCCOCCNS(=O)(=O)c2ccc(O[C@H]3c4cc(Cl)cc(Cl)c4C[C@@H]3N3CCC[C@@H](N(C)C)C3)c(C)c2)ccc1O[C@H]1c2cc(Cl)cc(Cl)c2C[C@@H]1N1CCC[C@@H](N(C)C)C1` ?
> 7.00

====

Examples of compounds with documented IC50 follow.
- ASSAYED TARGET: Sodium/hydrogen exchanger 3 (Homo sapiens, UniProt P48764)
- TEST DETAILS: Cell-Based Assay of NHE-3 Activity (Persistent Inhibition): The ability of compounds to inhibit human and rat NHE-3-mediated Na+ dependent H+ antiport after application and washout was measured using a modification of the pH sensitive dye method described above. PS120 fibroblasts stably expressing human NHE3 and NHERF2 were obtained from Mark Donowitz (Baltimore, Md.). Opossum kidney (OK) cells were obtained from the ATCC and propagated per their instructions. The rat NHE-3 gene was introduced into OK cells via electroporation, and cells were seeded into 96 well plates and grown overnight. Medium was aspirated from the wells, cells were washed once with NaCl-HEPES buffer (100 mM NaCl, 50 mM HEPES, 10 mM glucose, 5 mM KCl, 2 mM CaCl2, 1 mM MgCl2, pH 7.4), then overlayed with NaCl-HEPES buffer containing 0-30 μM test compound. After a 60 min incubation at room temperature, the test drug containing buffer was aspirated from the cells. Following aspiration, cells were washed once with NaCl-HEPES buffer without drug, then incubated for 30 min at 37° C. with NH4Cl-HEPES buffer (20 mM NH4Cl, 80 mM NaCl, 50 mM HEPES, 5 mM KCl, 2 mM CaCl2, 1 mM MgCl2, pH 7.4) containing 5 μM BCECF-AM. Cells were washed once with Ammonium free, Na+-free HEPES (100 mM choline, 50 mM HEPES, 10 mM glucose, 5 mM KCl, 2 mM CaCl2, 1 mM MgCl2, pH 7.4) and incubated in the same buffer for 10 minutes at room temperature to lower intracellular pH. NHE-3-mediated recovery of neutral intracellular pH was initiated ([…]) by addition of Na-HEPES buffer. […] Changes in intracellular pH were monitored using a FLIPR Tetra® (Molecular Devices, Sunnyvale, Calif.) by excitation at λex 439 to 505 nm, and measuring BCECF fluorescence at λem 538 nm. The initial rate of the fluorescence ratio change was used as a measure of NHE-mediated Na+/H+ activity, and reported as the change in fluorescence ratio per minute.

Solved entries:
CN(C)[C@H]1Cc2c(cc(Cl)cc2C(F)(F)F)[C@@H]1Oc1ccc(S(=O)(=O)NCCOCCOCCNC(=O)NCCCCNC(=O)NCCOCCOCCNS(=O)(=O)c2ccc(O[C@H]3c4cc(Cl)cc(C(F)(F)F)c4C[C@@H]3N(C)C)cc2)cc1; > 1000 nM
CN(C)[C@@H]1CCCN([C@H]2Cc3c(Cl)cc(Cl)cc3[C@@H]2Oc2ccc(S(=O)(=O)NCCOCCOCCNC(=O)NCCCCNC(=O)NCCOCCOCCNS(=O)(=O)c3ccc(O[C@H]4c5cc(Cl)cc(Cl)c5C[C@@H]4N4CCC[C@@H](N(C)C)C4)c(F)c3)cc2F)C1; < 100 nM
O=C(NCCCCNC(=O)NCCOCCN1CC[C@H](NS(=O)(=O)c2ccc(O[C@H]3c4cc(Cl)cc(Cl)c4C[C@@H]3N3CCNCC3)c(F)c2)C1)NCCOCCN1CC[C@H](NS(=O)(=O)c2ccc(O[C@H]3c4cc(Cl)cc(Cl)c4C[C@@H]3N3CCNCC3)c(F)c2)C1; < 100 nM
Cc1cc(Cl)cc2c1C[C@H](N1CCNCC1)[C@H]2Oc1ccc(S(=O)(=O)NCCOCCOCCNC(=O)NCCCCNC(=O)NCCOCCOCCNS(=O)(=O)c2ccc(O[C@H]3c4cc(Cl)cc(C)c4C[C@@H]3N3CCNCC3)cc2)cc1; < 100 nM
Cc1cc(Cl)cc2c1C[C@H](N1CCC[C@@H](N)C1)[C@H]2Oc1ccc(S(=O)(=O)NCCOCCOCCNC(=O)NCCCCNC(=O)NCCOCCOCCNS(=O)(=O)c2ccc(O[C@H]3c4cc(Cl)cc(C)c4C[C@@H]3N3CCC[C@@H](N)C3)c(F)c2)cc1F; < 100 nM
Cc1cc(S(=O)(=O)NCCOCCOCCNC(=O)NCCCCNC(=O)NCCOCCOCCNS(=O)(=O)c2ccc(O[C@H]3c4cc(Cl)cc(C#N)c4C[C@@H]3N3CCC[C@@H](N)C3)c(C)c2)ccc1O[C@H]1c2cc(Cl)cc(C#N)c2C[C@@H]1N1CCC[C@@H](N)C1; > 1000 nM
CN(C)[C@@H]1CCCN([C@H]2Cc3c(C#N)cc(Cl)cc3[C@@H]2Oc2ccc(S(=O)(=O)NCCOCCOCCNC(=O)NCCCCNC(=O)NCCOCCOCCNS(=O)(=O)c3ccc(O[C@H]4c5cc(Cl)cc(C#N)c5C[C@@H]4N4CCC[C@@H](N(C)C)C4)c(F)c3)cc2F)C1; > 1000 nM
Cc1cc(S(=O)(=O)NCCOCCOCCNC(=O)NCCCCNC(=O)NCCOCCOCCNS(=O)(=O)c2ccc(O[C@H]3c4cc(Cl)cc(C)c4C[C@@H]3N3CCC[C@@H](N)C3)c(C)c2)ccc1O[C@H]1c2cc(Cl)cc(C)c2C[C@@H]1N1CCC[C@@H](N)C1; < 100 nM
Cc1cc(S(=O)(=O)NCCOCCOCCNC(=O)NCCCCNC(=O)NCCOCCOCCNS(=O)(=O)c2cc(C)c(O[C@H]3c4cc(Cl)cc(Cl)c4C[C@@H]3N3CCC[C@@H](N)C3)cc2F)c(F)cc1O[C@H]1c2cc(Cl)cc(Cl)c2C[C@@H]1N1CCC[C@@H](N)C1; < 100 nM
N[C@@H]1CCCN([C@H]2Cc3c(Cl)cc(Cl)cc3[C@@H]2Oc2c(F)cc(S(=O)(=O)NCCOCCOCCNC(=O)NCCCCNC(=O)NCCOCCOCCNS(=O)(=O)c3cc(F)c(O[C@H]4c5cc(Cl)cc(Cl)c5C[C@@H]4N4CCC[C@@H](N)C4)c(F)c3)cc2F)C1; < 100 nM

Which IC50 reading was recorded for the compound `N[C@@H]1CCCN([C@H]2Cc3c(Cl)cc(Cl)cc3[C@@H]2Oc2ccc(S(=O)(=O)NCCOCCOCCNC(=O)NCCCCNC(=O)NCCOCCOCCNS(=O)(=O)c3ccc(O[C@H]4c5cc(Cl)cc(Cl)c5C[C@@H]4N4CCC[C@@H](N)C4)c(F)c3)cc2F)C1` ?
< 100 nM

Try `Cc1cc(S(=O)(=O)NCCOCCOCCNC(=O)NCCCCNC(=O)NCCOCCOCCNS(=O)(=O)c2ccc(O[C@H]3c4cc(Cl)cc(Cl)c4C[C@@H]3N3CCC[C@@H](N(C)C)C3)c(C)c2)ccc1O[C@H]1c2cc(Cl)cc(Cl)c2C[C@@H]1N1CCC[C@@H](N(C)C)C1` next.
< 100 nM

Try `CN(C)[C@H]1Cc2c(Cl)cc(Cl)cc2[C@@H]1Oc1ccc(S(=O)(=O)NCCCCCCCCNC(=O)NCCCCNC(=O)NCCCCCCCCNS(=O)(=O)c2ccc(O[C@H]3c4cc(Cl)cc(Cl)c4C[C@@H]3N(C)C)cc2)cc1` next.
> 1000 nM

Try `N#Cc1cc(Cl)cc2c1C[C@H](N1CCC[C@@H](N)C1)[C@H]2Oc1ccc(S(=O)(=O)NCCOCCOCCNC(=O)NCCCCNC(=O)NCCOCCOCCNS(=O)(=O)c2ccc(O[C@H]3c4cc(Cl)cc(C#N)c4C[C@@H]3N3CCC[C@@H](N)C3)cc2)cc1` next.
< 100 nM

Try `N[C@@H]1CCCN([C@H]2Cc3c(Cl)cc(Cl)cc3[C@@H]2Oc2ccc(S(=O)(=O)NCCCCCCn3cc(CNC(=O)NCCCCNC(=O)NCc4cn(CCCCCCNS(=O)(=O)c5ccc(O[C@H]6c7cc(Cl)cc(Cl)c7C[C@@H]6N6CCC[C@@H](N)C6)cc5)nn4)nn3)cc2)C1` next.
< 100 nM

Try `CN(C)[C@H]1Cc2c(OC(F)(F)F)cc(Cl)cc2[C@@H]1Oc1ccc(S(=O)(=O)NCCOCCOCCNC(=O)NCCCCNC(=O)NCCOCCOCCNS(=O)(=O)c2ccc(O[C@H]3c4cc(Cl)cc(OC(F)(F)F)c4C[C@@H]3N(C)C)cc2)cc1` next.
> 1000 nM
